# Tested on: 415267-285-R-J2-PDC complex spheroid viability;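 note: luminescence used as stand-in measure of viable cells; spheroids exposed to compounds for one week before readout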
# procedure details: Anticancer human tumor 415267-285-R-J2-PDC patient-derived breast carcinoma cell line growth inhibition [POLQ]; active = viability on the fitted dose curve at most 10% of control; inactive = the rest
# run conditions: second compound 10 µM; first compound 0.0316 µM
Give your call using only these classes: yes (active), no (inactive)

Some solved entries appear below for comparison.
molecule | assigned label
COc1cc(C2c3cc4c(cc3C(OC3OC5COC(C)OC5C(O)C3O)C3COC(=O)C23)OCO4)cc(OC)c1O (stereo not given) + Cc1cccc(N(C)C(=O)C2C(O)CCN2c2nc(C)cc(C(F)(F)F)c2C#N)c1 | no
CCc1c2c(nc3ccc(O)cc13)-c1cc3c(c(=O)n1C2)COC(=O)[C@]3(O)CC + Cc1cccc(N(C)C(=O)C2C(O)CCN2c2nc(C)cc(C(F)(F)F)c2C#N)c1 | yes
CC1COCCN1c1cc(-c2ccnn2C)c2ccnc(-c3ccn[nH]3)c2n1 (stereo not given) + Nc1ccc(C#CCN(C(=O)Cc2ncc(C(F)(F)F)cc2C(F)(F)F)c2ccc(F)cc2)nn1 | no
CC[C@@]1(O)C(=O)OCc2c1cc1n(c2=O)Cc2cc3c(CN(C)C)c(O)ccc3nc2-1 + COC1C(OC(N)=O)C(O)C(Oc2ccc3c(O)c(NC(=O)c4ccc(O)c(CC=C(C)C)c4)c(=O)oc3c2C)OC1(C)C | no

In this assay, the call recorded for CCc1cc2c(N3CCc4c(cc(Cn5ccnc5)cc4-c4cn(C)nc4C(F)(F)F)C3=O)ccnc2c(OC)n1 + COC1C(OC(N)=O)C(O)C(Oc2ccc3c(O)c(NC(=O)c4ccc(O)c(CC=C(C)C)c4)c(=O)oc3c2C)OC1(C)C was what?
no

Hey, just so you know, these numbers are from PubChem BioAssay AID1963847.
